# composite z-score annotations
Biological target: Neurogenic locus notch homolog protein 3 (Homo sapiens) (UniProt Q9UM47)
Sequence (Q9UM47 whole entry, looked up): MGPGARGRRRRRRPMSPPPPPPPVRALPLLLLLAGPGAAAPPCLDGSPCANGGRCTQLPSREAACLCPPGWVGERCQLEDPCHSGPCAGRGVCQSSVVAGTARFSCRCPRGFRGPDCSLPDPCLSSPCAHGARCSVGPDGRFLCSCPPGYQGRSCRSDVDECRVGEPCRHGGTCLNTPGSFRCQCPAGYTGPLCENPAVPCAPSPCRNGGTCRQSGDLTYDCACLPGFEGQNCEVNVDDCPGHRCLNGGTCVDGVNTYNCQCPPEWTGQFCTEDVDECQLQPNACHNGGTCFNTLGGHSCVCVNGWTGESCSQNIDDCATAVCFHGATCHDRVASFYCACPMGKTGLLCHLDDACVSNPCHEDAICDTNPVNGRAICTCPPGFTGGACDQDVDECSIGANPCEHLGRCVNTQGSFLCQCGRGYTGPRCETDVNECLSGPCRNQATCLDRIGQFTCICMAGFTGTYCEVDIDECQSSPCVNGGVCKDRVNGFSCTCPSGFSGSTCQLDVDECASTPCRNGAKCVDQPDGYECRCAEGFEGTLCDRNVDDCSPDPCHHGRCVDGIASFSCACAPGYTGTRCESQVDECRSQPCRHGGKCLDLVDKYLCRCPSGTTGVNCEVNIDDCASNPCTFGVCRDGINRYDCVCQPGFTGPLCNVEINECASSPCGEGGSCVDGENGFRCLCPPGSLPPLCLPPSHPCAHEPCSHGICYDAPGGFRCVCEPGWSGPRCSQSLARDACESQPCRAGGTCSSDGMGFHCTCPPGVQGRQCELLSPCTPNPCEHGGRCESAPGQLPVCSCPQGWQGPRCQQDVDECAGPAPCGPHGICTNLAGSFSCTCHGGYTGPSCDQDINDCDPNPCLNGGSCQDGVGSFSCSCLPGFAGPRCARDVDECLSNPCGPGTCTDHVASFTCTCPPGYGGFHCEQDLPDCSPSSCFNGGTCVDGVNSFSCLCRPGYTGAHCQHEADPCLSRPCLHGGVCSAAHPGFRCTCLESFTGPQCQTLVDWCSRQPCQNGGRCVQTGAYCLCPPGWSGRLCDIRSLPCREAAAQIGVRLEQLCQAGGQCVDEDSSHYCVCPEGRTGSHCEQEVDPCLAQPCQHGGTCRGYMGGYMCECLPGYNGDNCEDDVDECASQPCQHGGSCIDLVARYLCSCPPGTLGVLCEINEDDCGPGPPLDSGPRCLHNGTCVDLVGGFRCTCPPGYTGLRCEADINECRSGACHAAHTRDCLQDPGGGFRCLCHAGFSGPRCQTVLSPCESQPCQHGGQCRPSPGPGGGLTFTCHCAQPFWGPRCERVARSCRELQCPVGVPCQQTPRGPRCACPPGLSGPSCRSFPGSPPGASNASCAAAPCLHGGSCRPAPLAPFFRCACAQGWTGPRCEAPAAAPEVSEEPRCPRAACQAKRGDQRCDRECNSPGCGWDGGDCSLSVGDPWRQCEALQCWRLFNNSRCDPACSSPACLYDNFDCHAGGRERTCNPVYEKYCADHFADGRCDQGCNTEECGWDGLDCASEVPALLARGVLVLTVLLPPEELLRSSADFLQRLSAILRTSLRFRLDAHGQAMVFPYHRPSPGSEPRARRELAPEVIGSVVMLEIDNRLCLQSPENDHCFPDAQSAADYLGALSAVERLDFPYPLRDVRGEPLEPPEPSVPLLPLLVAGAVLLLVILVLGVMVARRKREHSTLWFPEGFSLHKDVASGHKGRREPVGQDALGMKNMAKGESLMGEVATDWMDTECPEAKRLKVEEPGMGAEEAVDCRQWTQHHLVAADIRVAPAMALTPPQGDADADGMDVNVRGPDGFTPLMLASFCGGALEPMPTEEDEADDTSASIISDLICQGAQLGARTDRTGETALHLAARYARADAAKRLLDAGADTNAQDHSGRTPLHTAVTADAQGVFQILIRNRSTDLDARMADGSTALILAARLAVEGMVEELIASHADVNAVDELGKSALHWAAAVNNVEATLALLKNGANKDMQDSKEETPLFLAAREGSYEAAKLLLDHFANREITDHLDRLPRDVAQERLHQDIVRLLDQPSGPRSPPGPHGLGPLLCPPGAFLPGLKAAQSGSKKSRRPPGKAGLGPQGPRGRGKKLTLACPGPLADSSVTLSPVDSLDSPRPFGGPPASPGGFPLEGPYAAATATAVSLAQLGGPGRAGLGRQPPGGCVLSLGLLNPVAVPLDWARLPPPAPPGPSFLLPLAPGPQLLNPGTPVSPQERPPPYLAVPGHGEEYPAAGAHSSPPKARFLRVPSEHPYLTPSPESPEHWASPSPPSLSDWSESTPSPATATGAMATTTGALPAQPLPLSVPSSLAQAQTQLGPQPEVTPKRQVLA
Test: small molecules binding NOTCH3 protein – biochemical, 635/667 nm fluorescence, primary screen (AID 1096)
Conditions: small-molecule microarray, 635 nm fluorescence, higher = more signal
READOUT LABEL: composite z-score

>>> value_observed("C=CCNC(=O)[C@@H]1[C@H]2C(=O)O[C@H](c3ccccc3)[C@H](c3ccccc3)N2[C@H](c2ccccc2OCCO)[C@@]12C(=O)Nc1ccc(C#CCCO)cc12")
0.686
>>> value_observed("COC(=O)[C@@]1(Cc2ccc(F)cc2)[C@H]2c3cc(C(=O)N(C)C)n(Cc4ccc(OC(F)(F)F)cc4)c3C[C@H]2CN1C(=O)c1ccccc1")
-0.0482
>>> value_observed("COc1ccccc1CN1C(=O)c2ccccc2[C@](Cc2ccccc2I)(C(=O)O)[C@@H]1c1ccc(CO)cc1")
1
>>> value_observed("COc1cc2c(cc1O)C(c1ccc(CN3CCCC3)cc1)N(Cc1cc3c(cc1Br)OCO3)CC2 (stereo not given)")
0.313
>>> value_observed("O=C(NCCN1CCOCC1)[C@@H]1c2ccccc2C(=O)N(C2Cc3ccccc3C2)[C@H]1c1ccc(CO)cc1")
0.123
>>> value_observed("C=C[C@H]1C(C(=O)OCC)=CC[C@@H](c2ccccc2)N1S(=O)(=O)c1ccc(C)cc1")
1.13
>>> value_observed("C=CCC(OC(C)=O)[C@@H]1[C@@H](N(Cc2cccc3ccccc23)C(=O)Cc2ccc(F)cc2)c2cc(OCCCO)ccc2N1C(=O)c1ccc2ccccc2c1 (stereo not given in full)")
0.268
>>> value_observed("CO[C@H]1O[C@H](CO)[C@@H](OC(=O)Nc2ccc3c(c2)OCO3)[C@H](OC(=O)Nc2ccc3c(c2)OCO3)[C@@H]1OC(=O)Nc1ccc2c(c1)OCO2")
1.03
>>> value_observed("N#Cc1ccc(NN2C(C(O)c3ccc(Br)cc3)C=CC3C(=O)N(c4ccccc4)C(=O)C32)cc1 (stereo not given)")
1.01
>>> value_observed("CC1CC/C=C\\[C@H]2OC34C=CCN(c5ccc(Cl)cc5)C(=O)[C@H]3N(C(C)CO)C(=O)[C@]4(C)C2C(=O)O1 (stereo not given in full)")
-0.984

----------
Assay: growth of efflux-deficient E. coli DRC39 – strain DRC39, OD650, 24 h, E. coli filamentation inducers, primary screen (AID 1178);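 note: growth measured as culture turbidity by optical density at 650 nm; test concentration not given here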
Details: E. coli DRC39 acrAB, higher = more signal, called active from +8 up or from −8 down
READOUT LABEL: z-score

>>> value_observed("O=C(O)[C@@H]1C[C@@H]2C(=O)N3CCC[C@H]3C(=O)N2[C@@H]1c1ccc(O)cc1")
0.437
>>> value_observed("CN(C)C(=O)[C@]1(Cc2ccccc2CN=[N+]=[N-])N=C(c2ccc(OCCCO)cc2)O[C@@H]1c1ccccc1")
0.294
>>> value_observed("[N-]=[N+]=Nc1ccccc1C[C@]1(C(=O)N2CCOCC2)COC(c2ccc(OCCCO)cc2)=N1")
1.08
>>> value_observed("COCCOC(=O)N1C(=O)[C@@]2(c3cc(C#CCNC(N)=O)ccc31)[C@H](C(N)=O)[C@H]1C(=O)O[C@H](c3ccccc3)[C@H](c3ccccc3)N1[C@@H]2c1ccccc1OCCO")
-0.0653
>>> value_observed("COc1ccccc1CN1C(=O)c2ccccc2[C@](Cc2ccccc2I)(C(=O)O)[C@@H]1c1ccc(CO)cc1")
0.706
>>> value_observed("N[C@@H](Cc1ccccc1)C(=O)NCc1cn(Cc2ccccc2)nn1")
1.35
>>> value_observed("C=C[C@H](C)[C@H](OC(=O)Nc1ccc(SC)cc1)c1ccc(OCCO)cc1")
-0.576
>>> value_observed("C#CCN([C@@H](Cc1ccccc1)C(=O)OC)[C@@H](/C=C/C1CC1)[C@H](O)Cc1ccccc1")
-0.622
>>> value_observed("C=CCNC(=O)[C@@H]1[C@H]2C(=O)O[C@H](c3ccccc3)[C@H](c3ccccc3)N2[C@H](c2ccccc2OCCO)[C@@]12C(=O)N(C(=O)OCCOC)c1ccc(C#CC3(O)CCCCCC3)cc12")
0.0265
>>> value_observed("CS(=O)(=O)CCOC(=O)C1=CC(c2ccc(CO)cc2)=CC(C2CC2)N(Cc2sc3ccccc3c2Cl)C=C1C(=O)OCCS(C)(=O)=O (stereo not drawn)")
-3.53
>>> value_observed("C=C(C(=O)CC[C@H](OC(=O)c1ccccc1-c1ccccc1C(=O)O)c1cccc(OCCO)c1)C(C)C")
-1.08
>>> value_observed("CC(C)NC(=O)[C@@]1(c2ccc([N+](=O)[O-])cc2)CC(=O)N(C2CCCCC2)[C@@H]1c1ccc(CO)cc1")
0.389
>>> value_observed("COc1cc2c(cc1O)C(C1CC1)N(Cc1cccc(OC(F)(F)F)c1)CC2 (stereo not drawn)")
0.213
>>> value_observed("CCCC=C(CCC)[C@@H](NC(=O)C(C)(C)C)c1ccc(C(=O)OC)cc1")
-0.187
>>> value_observed("COc1ccc(CCNC(=O)[C@@]2(c3ccc([N+](=O)[O-])cc3)CC(=O)N(C3CCCCC3)[C@@H]2c2ccc(CO)cc2)cc1")
0.914
>>> value_observed("C[N+](C)(C)CCCC[C@@H]1NC(=O)[C@@H]2C[C@H](C(=O)NCCCCCCN)[C@H](c3cccc(OCCO)c3)N2C1=O")
0.342
>>> value_observed("C[C@@H]1NC(=O)[C@@H](Cc2ccccc2)NC(=O)[C@@]23C(=O)N[C@@H](Cc4ccccc4)C2[C@H](C)[C@@]2(C)O[C@H]2C3/C=C/C/C=C\\CNC1=O (stereo partly drawn)")
-0.811
>>> value_observed("COCCOC(=O)N1C(=O)[C@@]2(c3cc(C#CCC(C(=O)OC)C(=O)OC)ccc31)[C@H](c1ccc(OCCO)cc1)N1[C@H](c3ccccc3)[C@H](c3ccccc3)OC(=O)[C@H]1[C@@H]2C(=O)N1CCc2cc(OC)c(OC)cc2C1")
0.301
>>> value_observed("CCCCCC1=C2CNC(C)(C(=O)OC)C=C2C(C)C1=O (stereo not drawn)")
-0.814
>>> value_observed("C=C(COC)/C(=C/C[C@H](OC(=O)c1ccncc1)c1ccc(CO)o1)c1cnc2ccccc2c1")
-0.305
>>> value_observed("CCCCC=C[C@@H](NC(=O)OCc1ccccc1Cl)c1ccccc1")
-1.32
>>> value_observed("COC(=O)C1(CC(C)C)C=C2C(=C(c3ccccc3)C(=O)C2C)CN1 (stereo not drawn)")
-0.33
>>> value_observed("CCCNC(=O)[C@@]1(C)c2ccccc2C(=O)N(c2ccc(C)cn2)[C@H]1c1ccc(CO)cc1")
-0.398
